- Target System: Amine oxidase [flavin-containing] B (Rattus norvegicus, UniProt P19643)
- Sequence (P19643 whole entry): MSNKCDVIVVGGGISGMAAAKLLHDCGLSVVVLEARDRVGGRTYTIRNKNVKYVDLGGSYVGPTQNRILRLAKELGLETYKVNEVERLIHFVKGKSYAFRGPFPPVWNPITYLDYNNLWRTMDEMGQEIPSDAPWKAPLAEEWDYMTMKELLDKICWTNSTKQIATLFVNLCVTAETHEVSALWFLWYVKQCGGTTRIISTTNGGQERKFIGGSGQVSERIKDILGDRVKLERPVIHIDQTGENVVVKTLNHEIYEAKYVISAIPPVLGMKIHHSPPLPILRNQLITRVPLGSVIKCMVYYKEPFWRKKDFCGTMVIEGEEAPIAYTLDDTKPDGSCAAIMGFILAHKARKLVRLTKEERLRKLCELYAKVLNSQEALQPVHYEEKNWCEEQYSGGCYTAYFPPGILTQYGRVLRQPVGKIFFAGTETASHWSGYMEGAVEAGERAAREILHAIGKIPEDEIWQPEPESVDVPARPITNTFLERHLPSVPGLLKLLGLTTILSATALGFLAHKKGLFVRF
- Assay Name: Percentage inhibition of Monoamine oxidase B (MAO-B) at 1 uM concentration
Quantity Kind: inhibition at 1 µM (%)

{"columns": ["Molecule", "Value"],
 "data": [
  ["CC(O)c1ccc2c(c1)S(=O)(=O)c1ccccc1O2 (configuration not stated)", 14],
  ["CCN(CC)Cc1cccc2c1S(=O)(=O)c1c(CN(CC)CC)cccc1O2", 8],
  ["[N-]=[N+]=NCc1cccc2c1S(=O)(=O)c1ccccc1O2", 0],
  ["CN(C)CCOc1cccc2c1S(=O)(=O)c1ccccc1O2", 0],
  ["Cc1ccc2c(c1)Oc1ccccc1S2", 13],
  ["CCc1ccc2c(c1)Oc1ccccc1S2", 8],
  ["CCN(CC)Cc1cccc2c1S(=O)(=O)c1ccccc1O2", 0],
  ["O=S1(=O)c2ccccc2Oc2cccc(Cc3cccc(Cl)c3)c21", 0],
  ["O=C1c2ccccc2S(=O)(=O)c2ccc(Br)cc21", 11],
  ["Oc1ccc2c(c1)Sc1ccccc1O2", 7],
  ["Cc1cccc2c1Oc1ccccc1S2(=O)=O", 6],
  ["O=S1(=O)c2ccccc2Oc2cccc(C(O)c3cccc(Cl)c3)c21 (configuration not stated)", 0]
]}
